Values from patent US7807713B2

- study system: hAR(W741C) (Homo sapiens, UniProt P10275, W742C)
- Construct: expressed in transfected cells; host or cells: CV-1
- Sequence (P10275 1-920 W742C): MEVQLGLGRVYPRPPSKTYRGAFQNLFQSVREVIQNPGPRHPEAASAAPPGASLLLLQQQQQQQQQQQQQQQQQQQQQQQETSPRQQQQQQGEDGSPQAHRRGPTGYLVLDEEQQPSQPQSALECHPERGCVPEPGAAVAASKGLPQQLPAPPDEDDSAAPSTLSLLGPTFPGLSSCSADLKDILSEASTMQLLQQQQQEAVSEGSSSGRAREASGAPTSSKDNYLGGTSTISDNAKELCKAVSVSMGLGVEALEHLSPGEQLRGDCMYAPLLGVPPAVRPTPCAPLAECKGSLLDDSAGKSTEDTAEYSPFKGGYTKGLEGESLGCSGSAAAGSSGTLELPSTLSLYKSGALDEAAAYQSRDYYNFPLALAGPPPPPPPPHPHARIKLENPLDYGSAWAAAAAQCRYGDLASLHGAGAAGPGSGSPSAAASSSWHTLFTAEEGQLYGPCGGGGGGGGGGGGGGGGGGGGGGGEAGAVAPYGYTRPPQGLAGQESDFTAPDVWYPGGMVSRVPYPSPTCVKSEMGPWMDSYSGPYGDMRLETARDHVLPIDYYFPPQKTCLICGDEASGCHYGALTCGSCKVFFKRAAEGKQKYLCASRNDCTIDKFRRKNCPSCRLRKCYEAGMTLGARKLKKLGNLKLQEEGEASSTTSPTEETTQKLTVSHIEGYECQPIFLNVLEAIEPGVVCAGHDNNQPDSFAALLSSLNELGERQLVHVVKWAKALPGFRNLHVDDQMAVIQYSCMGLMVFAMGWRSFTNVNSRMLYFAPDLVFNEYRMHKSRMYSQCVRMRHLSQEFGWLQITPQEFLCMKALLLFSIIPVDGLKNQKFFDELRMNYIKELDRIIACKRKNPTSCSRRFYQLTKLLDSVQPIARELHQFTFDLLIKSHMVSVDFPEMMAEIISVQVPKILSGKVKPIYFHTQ
- procedure summary: Transcription assay (ARE-luciferase reporter, CV-1 cells), mutant androgen receptor W741C
- Type: cell-based
assay metric: EC50 (nM)
A number alone suffices; assume nM.

Data point: CC(O)(CS(=O)(=O)c1cccc(Cc2ccccc2)c1)C(=O)Nc1ccc(C#N)c(C(F)(F)F)c1 (stereo not shown) [PLM3] ; EC50 = 630
